# system-tested: Acetylcholinesterase (Anopheles gambiae)
# Sequence (Q869C3 whole entry): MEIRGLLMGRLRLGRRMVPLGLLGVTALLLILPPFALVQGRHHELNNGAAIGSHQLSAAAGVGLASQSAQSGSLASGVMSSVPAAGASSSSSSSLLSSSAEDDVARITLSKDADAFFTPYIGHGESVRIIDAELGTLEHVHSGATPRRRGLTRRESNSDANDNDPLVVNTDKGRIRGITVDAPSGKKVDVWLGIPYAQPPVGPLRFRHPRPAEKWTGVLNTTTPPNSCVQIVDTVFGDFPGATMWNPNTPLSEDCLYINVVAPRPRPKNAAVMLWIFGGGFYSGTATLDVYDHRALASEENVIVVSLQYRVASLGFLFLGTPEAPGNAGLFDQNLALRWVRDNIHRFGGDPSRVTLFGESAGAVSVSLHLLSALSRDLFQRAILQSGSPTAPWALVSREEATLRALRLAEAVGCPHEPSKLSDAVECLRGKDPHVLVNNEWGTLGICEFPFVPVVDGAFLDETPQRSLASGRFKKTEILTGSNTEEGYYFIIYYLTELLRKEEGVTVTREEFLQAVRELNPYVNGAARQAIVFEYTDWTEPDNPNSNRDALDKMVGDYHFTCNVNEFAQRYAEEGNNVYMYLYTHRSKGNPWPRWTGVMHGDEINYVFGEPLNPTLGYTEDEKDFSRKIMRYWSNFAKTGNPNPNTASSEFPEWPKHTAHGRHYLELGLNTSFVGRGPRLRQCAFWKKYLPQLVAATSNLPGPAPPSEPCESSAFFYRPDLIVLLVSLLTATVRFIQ
# experiment-notes: Inhibition of recombinant Anopheles gambiae wild type AChE after 60 mins by Ellman assay
Overview of reported IC50 across a group of compounds:
test-readout: IC50 (µM)

INSERT INTO measurements (compound, comparison_operator, observed_measurement) VALUES
  ('CC(C)(C)c1cccc(C(=O)C(F)(F)F)c1', '=', 0.0181),
  ('CC(C)Cn1cc(C(=O)CF)cn1', '>', 10),
  ('O=C(c1cnn(C2CCCC2)c1)C(F)F', '=', 0.134),
  ('CCCC(C)n1cc(C(=O)C(F)(F)F)cn1 (configuration not stated)', '=', 0.00206),
  ('CCCC(C)n1cc(C(=O)C(F)F)cn1 (configuration not stated)', '=', 0.0291),
  ('CCC(CC)n1cc(C(=O)CF)cn1', '=', 0.337),
  ('CC(C)Cn1cc(C(=O)C(F)F)cn1', '=', 3.95);

###

Measured IC50 by item
# system-tested: Acetylcholinesterase (Homo sapiens, UniProt P22303)
# Sequence (P22303 whole entry): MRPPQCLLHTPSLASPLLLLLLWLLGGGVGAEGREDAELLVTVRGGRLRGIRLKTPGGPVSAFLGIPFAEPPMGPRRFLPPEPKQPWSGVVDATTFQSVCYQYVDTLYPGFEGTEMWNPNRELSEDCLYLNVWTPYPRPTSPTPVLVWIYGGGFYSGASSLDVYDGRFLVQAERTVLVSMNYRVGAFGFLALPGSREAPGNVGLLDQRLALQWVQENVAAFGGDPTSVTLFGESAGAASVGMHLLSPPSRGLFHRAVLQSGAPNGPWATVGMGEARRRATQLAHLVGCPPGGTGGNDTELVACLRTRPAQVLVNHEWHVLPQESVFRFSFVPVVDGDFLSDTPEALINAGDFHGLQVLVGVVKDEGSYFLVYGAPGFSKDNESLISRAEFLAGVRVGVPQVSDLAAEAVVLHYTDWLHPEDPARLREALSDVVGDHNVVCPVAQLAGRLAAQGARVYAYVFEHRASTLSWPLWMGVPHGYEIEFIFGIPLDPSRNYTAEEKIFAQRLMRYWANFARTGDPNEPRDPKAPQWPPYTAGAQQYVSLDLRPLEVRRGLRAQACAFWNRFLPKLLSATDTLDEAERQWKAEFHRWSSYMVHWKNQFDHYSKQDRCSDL
# experiment-notes: Inhibition of recombinant human AChE after 10 mins by Ellman assay
test-readout: IC50

INSERT INTO measurements (molecule, observed_measurement) VALUES
  ('O=C(c1cnn(C2CCCC2)c1)C(F)F', '0.208 µM'),
  ('CC(C)n1cc(C(=O)C(F)F)cn1', '0.802 µM'),
  ('CCC(CC)n1cc(C(=O)CF)cn1', '5.29 µM'),
  ('CC(C)n1cc(C(=O)C(F)(F)F)cn1', '0.0775 µM'),
  ('CCCC(C)n1cc(C(=O)CF)cn1 (stereo not drawn)', '24.2 µM'),
  ('CCC(C)n1cc(C(=O)CF)cn1 (stereo not drawn)', '16.9 µM'),
  ('CC(C)n1cc(C(=O)CF)cn1', '> 10 µM'),
  ('O=C(c1cnn(C2CCCC2)c1)C(F)(F)F', '0.0052 µM');

###

# system-tested: UniProt:P22303
# experiment-notes: Inhibition of recombinant human AChE after 10 mins by Ellman assay
Rule for this label: True means IC50 is less than 0.1 µM; False means IC50 is at least 0.1 µM.

INSERT INTO measurements (compound, group_label) VALUES
  ('CCC(C)n1cc(C(=O)C(F)(F)F)cn1 (centres undefined)', 'True'),
  ('CC(C)(C)c1cccc(C(=O)C(F)(F)F)c1', 'True'),
  ('CCCC(C)n1cc(C(=O)C(F)(F)F)cn1 (centres undefined)', 'True'),
  ('CCC(C)n1cc(C(=O)C(F)F)cn1 (centres undefined)', 'False'),
  ('CC(C)Cn1cc(C(=O)C(F)F)cn1', 'False'),
  ('C[Si](C)(C)c1cccc(C(=O)C(F)(F)F)c1', 'False'),
  ('O=C(CF)c1cnn(C2CCCC2)c1', 'False'),
  ('CC(C)(C)c1cccc(C(=O)C(F)F)c1', 'True'),
  ('CCCC(C)n1cc(C(=O)C(F)F)cn1 (centres undefined)', 'False'),
  ('CCC(CC)n1cc(C(=O)C(F)(F)F)cn1', 'True'),
  ('CC(C)Cn1cc(C(=O)CF)cn1', 'False'),
  ('CC(C)Cn1cc(C(=O)C(F)(F)F)cn1', 'False'),
  ('CCC(CC)n1cc(C(=O)C(F)F)cn1', 'True'),
  ('CNC(=O)Oc1ccccc1OC(C)C', 'False');

###

// reported log10 of IC50 for each item listed
# system-tested: Acetylcholinesterase (Anopheles gambiae)
# experiment-notes: Inhibition of recombinant Anopheles gambiae wild type AChE after 60 mins by Ellman assay
test-readout: log10 of IC50 (log10 of the value in nM)

INSERT INTO measurements (compound, observed_measurement) VALUES
  ('CNC(=O)Oc1ccccc1OC(C)C', 1.64),
  ('CC(C)n1cc(C(=O)C(F)(F)F)cn1', 2.45),
  ('C[Si](C)(C)c1cccc(C(=O)C(F)(F)F)c1', 2.41),
  ('O=C(c1cnn(C2CCCC2)c1)C(F)(F)F', 0.19),
  ('CCCC(C)n1cc(C(=O)CF)cn1 (configuration not stated)', 3.52),
  ('CCC(C)n1cc(C(=O)C(F)F)cn1 (configuration not stated)', 1.40),
  ('COP(=O)(OC)OC=C(Cl)Cl', 1.78);

###

# Tested on: Anopheles gambiae
# experiment-notes: Insecticidal activity against Anopheles gambiae G3 assessed as torsal contact toxicity by measuring mortality at 1000 ug/mL after 24 hrs by filter paper based method
# Assay type: functional
# experimental-context: G3, 24 h
Criterion: mortality at 1000 µg/mL strictly under 20%. Met: t. Not met: f.

INSERT INTO measurements (compound, system_tested, group_label) VALUES
  ('CCC(C)n1cc(C(=O)C(F)F)cn1 (stereo unspecified)', 'Anopheles gambiae', 'f'),
  ('CC(C)n1cc(C(=O)C(F)F)cn1', 'Anopheles gambiae', 'f'),
  ('CCC(CC)n1cc(C(=O)C(F)(F)F)cn1', 'Anopheles gambiae', 'f'),
  ('CCC(CC)n1cc(C(=O)C(F)F)cn1', 'Anopheles gambiae', 't'),
  ('CCC(C)n1cc(C(=O)CF)cn1 (stereo unspecified)', 'Anopheles gambiae', 'f'),
  ('CCCC(C)n1cc(C(=O)C(F)F)cn1 (stereo unspecified)', 'Anopheles gambiae', 't'),
  ('O=C(c1cnn(C2CCCC2)c1)C(F)(F)F', 'Anopheles gambiae', 'f'),
  ('CC(C)(C)c1cccc(C(=O)C(F)(F)F)c1', 'Anopheles gambiae', 't'),
  ('CCC(CC)n1cc(C(=O)CF)cn1', 'Anopheles gambiae', 'f'),
  ('CC(C)(C)c1cccc(C(=O)CF)c1', 'Anopheles gambiae', 'f'),
  ('CNC(=O)Oc1ccccc1OC(C)C', 'Anopheles gambiae', 'f'),
  ('O=C(c1cnn(C2CCCC2)c1)C(F)F', 'Anopheles gambiae', 't'),
  ('O=C(CF)c1cnn(C2CCCC2)c1', 'Anopheles gambiae', 't'),
  ('CC(C)n1cc(C(=O)CF)cn1', 'Anopheles gambiae', 'f'),
  ('CCC(C)n1cc(C(=O)C(F)(F)F)cn1 (stereo unspecified)', 'Anopheles gambiae', 'f'),
  ('CCCC(C)n1cc(C(=O)C(F)(F)F)cn1 (stereo unspecified)', 'Anopheles gambiae', 't'),
  ('C[Si](C)(C)c1cccc(C(=O)C(F)(F)F)c1', 'Anopheles gambiae', 't');

Attribution: ChEMBL document CHEMBL3621126
